- system-tested: APE1 (Homo sapiens)
- Construct: made in house
- Sequence (P27695 whole entry): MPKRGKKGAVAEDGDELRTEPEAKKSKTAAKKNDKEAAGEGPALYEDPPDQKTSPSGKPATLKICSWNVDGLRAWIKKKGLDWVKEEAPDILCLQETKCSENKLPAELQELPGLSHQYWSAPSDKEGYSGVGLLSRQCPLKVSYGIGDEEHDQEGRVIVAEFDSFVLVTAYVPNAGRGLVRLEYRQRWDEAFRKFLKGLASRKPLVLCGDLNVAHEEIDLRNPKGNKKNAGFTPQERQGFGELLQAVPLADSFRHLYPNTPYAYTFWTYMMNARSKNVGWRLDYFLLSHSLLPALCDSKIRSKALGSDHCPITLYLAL
- method-notes: Fluorogenic kinetic qHTS APE1 incision assay (primary screen and retest of cherrypicked samples);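 also: purified APE1 cleaving a fluorophore/dark-quencher labelled 17-mer duplex DNA bearing a tetrahydrofuran AP site, fluorescence rise followed kinetically over the first 2 min, inhibition normalized to controls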
- Type: biochemical
- particulars: initial quantitative high-throughput screen; read-out: APE1 qHTS IC50
reported-metric: pIC50
Give bare numbers, as −log10 of the molar value.

COc1ccc2c(c1)c(=O)oc1cc(OCC(=O)NC3CCCCC3)ccc12: 4.95
COc1ccc(CN2C(=O)NC(=O)/C(=C\c3ccco3)C2=O)cc1: 4.65
COCCN(C(=O)COC(=O)c1cc2c(s1)CCC2)c1c(N)n(Cc2ccccc2)c(=O)[nH]c1=O: 6.10

Please supply pIC50 for each of the following items, keeping them in order.
1. O=C(/C=C/c1ccc(O)c(O)c1)O[C@H](Cc1ccc(O)c(O)c1)C(=O)O
2. CC(=O)N[C@H]1C(O[C@@H]2O[C@H](C[C@@H](O)[C@H]3O[C@@H](N4CCC(=O)NC4=O)[C@H](O)[C@@H]3O)[C@H](O)[C@H](O)[C@H]2NC(=O)/C=C/CCCCCCCCCCC(C)C)OC(CO)[C@@H](O)[C@@H]1O (stereo partly shown)
3. Nc1c(S(=O)(=O)O)cc(NC(=O)c2ccccc2)c2c1C(=O)c1ccccc1C2=O
4. Cc1c2c(c(O)c3c(O)cccc13)C(=O)O[C@H]2C1C(N(C)C)C(O)=C(C(N)=O)C(=O)[C@H]1O (stereo partly shown)

A:
1: 7.00; 2: 5.10; 3: 4.67; 4: 5.70

# credit: paper PMC3479139
